Please provide measured DC50 for the entries that follow.
target: SMARCA4-HiBiT (Homo sapiens, UniProt P51532); construct: SMARCA4-HiBiT knock-in Hela monoclonal cell (CS3023226); host or cells: HeLa monoclonal knock-in line (CRISPR HiBiT knock-in at the endogenous locus, heterozygous); test: SMARCA4 HiBiT degradation assay in HeLa cells; assay type: cell-based; settings: 18 hours incubation, read-out: HeLa-HiBit-SM4 DC50
Sequence (P51532 whole entry): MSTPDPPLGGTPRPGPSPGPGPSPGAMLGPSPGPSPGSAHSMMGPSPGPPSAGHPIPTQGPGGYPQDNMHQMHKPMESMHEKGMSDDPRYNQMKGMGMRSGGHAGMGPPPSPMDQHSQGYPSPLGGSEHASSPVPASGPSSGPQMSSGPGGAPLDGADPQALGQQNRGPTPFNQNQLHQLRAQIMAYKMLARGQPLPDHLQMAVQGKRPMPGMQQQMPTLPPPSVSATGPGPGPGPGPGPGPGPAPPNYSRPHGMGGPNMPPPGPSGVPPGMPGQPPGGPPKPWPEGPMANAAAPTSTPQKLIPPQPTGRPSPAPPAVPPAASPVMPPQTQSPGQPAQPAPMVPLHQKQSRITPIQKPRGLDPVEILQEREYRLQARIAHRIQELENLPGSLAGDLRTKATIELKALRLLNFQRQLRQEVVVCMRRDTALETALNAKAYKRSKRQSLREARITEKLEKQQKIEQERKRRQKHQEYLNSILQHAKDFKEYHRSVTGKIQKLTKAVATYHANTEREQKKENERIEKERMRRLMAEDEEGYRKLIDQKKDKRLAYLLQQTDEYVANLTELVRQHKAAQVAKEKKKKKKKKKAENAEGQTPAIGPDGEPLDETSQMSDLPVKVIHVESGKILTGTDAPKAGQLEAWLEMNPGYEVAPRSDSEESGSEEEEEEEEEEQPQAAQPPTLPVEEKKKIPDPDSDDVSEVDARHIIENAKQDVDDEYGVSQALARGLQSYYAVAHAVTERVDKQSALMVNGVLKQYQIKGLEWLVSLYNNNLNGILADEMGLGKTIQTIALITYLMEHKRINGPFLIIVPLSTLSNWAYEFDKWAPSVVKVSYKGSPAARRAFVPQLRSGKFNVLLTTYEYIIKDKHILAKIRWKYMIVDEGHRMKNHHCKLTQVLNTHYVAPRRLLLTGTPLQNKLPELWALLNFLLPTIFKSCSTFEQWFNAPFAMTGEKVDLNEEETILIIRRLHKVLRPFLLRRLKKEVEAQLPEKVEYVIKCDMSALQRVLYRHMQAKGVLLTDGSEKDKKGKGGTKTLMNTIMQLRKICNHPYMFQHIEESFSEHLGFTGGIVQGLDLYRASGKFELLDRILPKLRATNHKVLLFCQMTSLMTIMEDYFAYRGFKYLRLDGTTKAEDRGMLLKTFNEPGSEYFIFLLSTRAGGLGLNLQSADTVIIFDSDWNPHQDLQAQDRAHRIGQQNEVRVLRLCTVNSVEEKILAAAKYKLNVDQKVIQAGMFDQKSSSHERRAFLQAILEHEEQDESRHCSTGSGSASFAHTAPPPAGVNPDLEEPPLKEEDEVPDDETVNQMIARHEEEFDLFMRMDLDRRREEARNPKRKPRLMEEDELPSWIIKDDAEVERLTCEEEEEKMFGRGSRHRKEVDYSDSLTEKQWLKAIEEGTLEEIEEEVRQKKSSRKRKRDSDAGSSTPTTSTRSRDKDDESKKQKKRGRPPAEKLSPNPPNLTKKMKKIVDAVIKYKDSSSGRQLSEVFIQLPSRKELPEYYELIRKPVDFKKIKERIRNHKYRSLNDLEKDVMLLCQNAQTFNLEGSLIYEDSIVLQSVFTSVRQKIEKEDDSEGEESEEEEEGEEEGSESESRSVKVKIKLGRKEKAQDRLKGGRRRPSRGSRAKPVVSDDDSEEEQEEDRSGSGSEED

stdin: For the molecule CN(CCN1CCC(N2CCN3c4cc(-c5ccccc5O)nnc4NC[C@H]3C2)CC1)C1CCN(c2ccc3c(c2)C(=O)N(C2CCC(=O)NC2=O)C3=O)CC1 (some centres unmarked) , what DC50 is on record?
stdout: < 10 nM

stdin: For the molecule O=C1CCC(N2C(=O)c3ccc(N4Cc5cnc(N6C[C@@H]7[C@@H](CN8CCN9c%10cc(-c%11ccccc%11O)nnc%10NC[C@H]9C8)[C@@H]7C6)nc5C4)cc3C2=O)C(=O)N1 (some centres unmarked) , what DC50 is on record?
stdout: 10 to 100 nM

stdin: For the molecule O=C1CCC(N2C(=O)c3ccc(N4CCC(CN5CCC(CN6CCN7c8cc(-c9ccccc9O)nnc8NC[C@H]7C6)CC5)C(F)(F)C4)cc3C2=O)C(=O)N1 (some centres unmarked) , what DC50 is on record?
stdout: < 10 nM

stdin: For the molecule O=C1CCC(N2Cc3cc(N4CCO[C@H](CN5C[C@@H]6[C@H](C5)[C@H]6CN5CCN6c7cc(-c8ccccc8O)nnc7NC[C@H]6C5)C4)ccc3C2=O)C(=O)N1 (some centres unmarked) , what DC50 is on record?
stdout: < 10 nM

stdin: For the molecule O=C1CCC(N2C(=O)c3ccc(Oc4ccc(N5CCC(N6CCN7c8cc(-c9ccccc9O)nnc8NC[C@H]7C6)CC5)cc4)cc3C2=O)C(=O)N1 (some centres unmarked) , what DC50 is on record?
stdout: 10 to 100 nM

###

target: SMARCA2-HiBiT (Homo sapiens); construct: SMARCA2-HiBiT knock-in Hela monoclonal cell (CS302366); host or cells: HeLa monoclonal knock-in line (CRISPR HiBiT knock-in at the endogenous locus, heterozygous); assay: SMARCA2 HiBiT degradation assay in HeLa cells; type: cell-based; conditions: HeLa, 18 hours incubation, read-out: HeLa-HiBit-SM2 Dmax (%)
Please provide measured Dmax for the entries that follow.

stdin: For the molecule O=C1CCC(N2C(=O)c3ccc(N4CCC(CN5CC6CC6(CN6CCN7c8cc(-c9ccccc9O)nnc8NC[C@H]7C6)C5)CC4)cc3C2=O)C(=O)N1 (stereo partly drawn) [Example 172] , what Dmax is on record?
stdout: 75 to 85%

stdin: For the molecule O=C1CCC(N2Cc3cc(OCCN4CCC(N5CCN6c7cc(-c8ccccc8O)nnc7NC[C@H]6C5)C4)ccc3C2=O)C(=O)N1 (stereo partly drawn) [Example 256] , what Dmax is on record?
stdout: 50 to 75%

stdin: For the molecule N#CC1(CN2CCC(CN3CCN4c5cc(-c6ccccc6O)nnc5NC[C@H]4C3)CC2)CCN(c2ccc3c(c2)C(=O)N(C2CCC(=O)NC2=O)C3=O)CC1 (stereo partly drawn) [Example 179] , what Dmax is on record?
stdout: 50 to 75%

stdin: For the molecule O=C1CCC(N2Cc3cc(CN4CCC(CCc5cnc(N6CCN7c8cc(-c9ccccc9O)nnc8NC[C@H]7C6)nc5)CC4)ccc3C2=O)C(=O)N1 (stereo partly drawn) [Example 64] , what Dmax is on record?
stdout: > 85%

stdin: For the molecule O=C1CCC(N2Cc3ccc(C4CCN(CCN5CCC(N6CCN7c8cc(-c9ccccc9O)nnc8NC[C@H]7C6)CC5)CC4)cc3C2=O)C(=O)N1 (stereo partly drawn) [Example 118] , what Dmax is on record?
stdout: > 85%

stdin: For the molecule O=C1CCC(N2C(=O)c3ccc(N4CC(CN5C[C@@H]6[C@H](C5)[C@H]6CN5CCN6c7cc(-c8ccccc8O)nnc7NC[C@H]6C5)C4)cc3C2=O)C(=O)N1 (stereo partly drawn) [Example 109] , what Dmax is on record?
stdout: > 85%

stdin: For the molecule O=C1CCC(N2C(=O)c3ccc(OC4CCN(CC5CCN(C(=O)N6CCN7c8cc(-c9ccccc9O)nnc8NC[C@H]7C6)CC5)CC4)cc3C2=O)C(=O)N1 (stereo partly drawn) [Example 145] , what Dmax is on record?
stdout: 75 to 85%

stdin: For the molecule O=C1CCC(N2Cc3ccc(N4CC(CN5CCN(C(=O)N6CCN7c8cc(-c9ccccc9O)nnc8NC[C@H]7C6)CC5)C4)cc3C2=O)C(=O)N1 (stereo partly drawn) [Example 107] , what Dmax is on record?
stdout: > 85%

stdin: For the molecule O=C1CCC(N2C(=O)c3ccc(N4CC(CCN5CCC(CN6CCN7c8cc(-c9ccccc9O)nnc8NC[C@H]7C6)CC5)C4)cc3C2=O)C(=O)N1 (stereo partly drawn) [Example 275] , what Dmax is on record?
stdout: 75 to 85%

stdin: For the molecule O=C1CCC(N2Cc3cc(C4CCN(C5CCN(CCCN6CCN7c8cc(-c9ccccc9O)nnc8NC[C@H]7C6)CC5)CC4)ccc3C2=O)C(=O)N1 (stereo partly drawn) [Example 209] , what Dmax is on record?
stdout: > 85%

stdin: For the molecule CC1(CN2CCC(CN3CCN4c5cc(-c6ccccc6O)nnc5NC[C@H]4C3)CC2)CCN(c2ccc3c(c2)C(=O)N(C2CCC(=O)NC2=O)C3=O)CC1 (stereo partly drawn) [Example 226] , what Dmax is on record?
stdout: > 85%

stdin: For the molecule O=C1CCC(N2C(=O)c3ccc(N4CC[C@H](CN5CCN(C(=O)N6CCN7c8cc(-c9ccccc9O)nnc8NC[C@H]7C6)CC5)[C@@H](F)C4)cc3C2=O)C(=O)N1 (stereo partly drawn) [Example 206] , what Dmax is on record?
stdout: > 85%

###

biological target: SMARCA4-HiBiT (Homo sapiens, UniProt P51532); construct: SMARCA4-HiBiT knock-in Hela monoclonal cell (CS3023226); host or cells: HeLa monoclonal knock-in line (CRISPR HiBiT knock-in at the endogenous locus, heterozygous); assay: SMARCA4 HiBiT degradation assay in HeLa cells; type: cell-based; conditions: HeLa, 18 hours incubation, read-out: HeLa-HiBit-SM4 Dmax (%)
Please provide measured Dmax for the entries that follow.

stdin: For SMARCA4-HiBiT (Homo sapiens, UniProt P51532), provide Dmax of O=C1CCC(N2Cc3cc(CCN4CCC(N5CCC(N6CCN7c8cc(-c9ccccc9O)nnc8NC[C@H]7C6)CC5)CC4)ccc3C2=O)C(=O)N1 (stereo partly drawn) [Example 62] please.
stdout: > 85%

stdin: For SMARCA4-HiBiT (Homo sapiens, UniProt P51532), provide Dmax of O=C1CCC(N2C(=O)c3cc(F)c(N4CCC(CN5C[C@@H]6[C@H](C5)[C@H]6CN5CCN6c7cc(-c8ccccc8O)nnc7NC[C@H]6C5)CC4)cc3C2=O)C(=O)N1 (stereo partly drawn) [Example 173] please.
stdout: 50 to 75%

stdin: For SMARCA4-HiBiT (Homo sapiens, UniProt P51532), provide Dmax of O=C1CCC(N2C(=O)c3ccc(N4CCC(CN5CCC(CN6CCN7c8cc(-c9ccccc9O)nnc8NC[C@H]7C6)C(F)(F)C5)CC4)cc3C2=O)C(=O)N1 (stereo partly drawn) [Example 260] please.
stdout: 75 to 85%

stdin: For SMARCA4-HiBiT (Homo sapiens, UniProt P51532), provide Dmax of O=C1CCC(N2Cc3ccc(N4CCC(CN5CCN(C(=O)N6CCN7c8cc(-c9ccccc9O)nnc8NC[C@H]7C6)CC5)CC4)cc3C2=O)C(=O)N1 (stereo partly drawn) [Example 95] please.
stdout: 75 to 85%

stdin: For SMARCA4-HiBiT (Homo sapiens, UniProt P51532), provide Dmax of O=C1CCC(N2C(=O)c3ccc(N4CCC(CN5CCO[C@@H](CN6CCN7c8cc(-c9ccccc9O)nnc8NC[C@H]7C6)C5)CC4)cc3C2=O)C(=O)N1 (stereo partly drawn) [Example 74] please.
stdout: > 85%

stdin: For SMARCA4-HiBiT (Homo sapiens, UniProt P51532), provide Dmax of O=C1CCC(N2C(=O)c3ccc(N4CCOC(CN5C[C@@H]6[C@H](C5)[C@H]6CN5CCN6c7cc(-c8ccccc8O)nnc7NC[C@H]6C5)C4)cc3C2=O)C(=O)N1 (stereo partly drawn) [Example 49] please.
stdout: 75 to 85%

###

molecular target: SMARCA4 (Homo sapiens); construct: endogenous in cells; host or cells: NCI-H520 (given as NCIH520 / NCIH1520 / H520); assay: SMARCA4 protein degradation in NCIH520 cells by In Cell Western (ICW); format: cell-based; settings: NCI-H520, overnight incubation (maximum 18 hours), highest concentration 1 μM, read-out: Dmax % (SM4_H520): maximum SMARCA4 degradation within the concentrations tested
Sequence (P51532 whole entry): as above
readout_kind: Dmax

stdin: For the compound O=C1CCC(N2C(=O)c3ccc(N4CCC(N5CCC(N6CCN7c8cc(-c9ccccc9O)nnc8NC[C@H]7C6)CC5)CC4)cc3C2=O)C(=O)N1 (stereo partly drawn) , what Dmax is on record?
stdout: > 75%

stdin: For the compound O=C1CCC(N2Cc3cc(CCN4CCC(OCCN5CCC(N6CCN7c8cc(-c9ccccc9O)nnc8NC[C@H]7C6)CC5)CC4)ccc3C2=O)C(=O)N1 (stereo partly drawn) , what Dmax is on record?
stdout: > 75%

stdin: For the compound O=C1CCC(n2c3ccc(CCCN4CCC(N5CCC(N6CCN7c8cc(-c9ccccc9O)nnc8NC[C@H]7C6)CC5)CC4)cc3c3cccnc32)C(=O)N1 (stereo partly drawn) , what Dmax is on record?
stdout: > 75%

stdin: For the compound O=C1CCC(N2C(=O)c3ccc(N4CCN(CCCN5CCC(N6CCN7c8cc(-c9ccccc9O)nnc8NC[C@H]7C6)CC5)CC4)cc3C2=O)C(=O)N1 (stereo partly drawn) , what Dmax is on record?
stdout: > 75%

stdin: For the compound O=C1CCC(N2C(=O)c3ccc(N4CCN(CCN5CCC(N6CCN7c8cc(-c9ccccc9O)nnc8NC[C@H]7C6)C5)CC4)cc3C2=O)C(=O)N1 (stereo partly drawn) , what Dmax is on record?
stdout: 50 to 75%

stdin: For the compound O=C1CCC(n2c3ccc(CCCN4CCC(N5CC(N6CCN7c8cc(-c9ccccc9O)nnc8NC[C@H]7C6)C5)CC4)cc3c3cccnc32)C(=O)N1 (stereo partly drawn) , what Dmax is on record?
stdout: > 75%
